tested on: HT-29; assay: Cytotoxicity against human HT-29 cells; assay type: functional, cell-based
pIC50: −log10 of the molar value.
READOUT KIND: pIC50

**Q:** Report pIC50 for C[N+](C)(C)[C@@H](Cc1ccc(O)cc1)C(=O)N[C@@H]1C(=O)N[C@@H](Cc2ccccc2)C(=O)N[C@H](C(=O)[O-])Cc2ccc(cc2)O[C@@H]1c1ccccc1 tested on HT-29.
**A:** < 4.82
